Reported fold difference in affinity vs original is given for each of the following binders.
Target: binding partner of C5A (XPA23)
Assay: Biacore K-off

binder	fold difference in affinity vs original
C5A (XPA23) VL A51W (antibody, V domains shown) VH: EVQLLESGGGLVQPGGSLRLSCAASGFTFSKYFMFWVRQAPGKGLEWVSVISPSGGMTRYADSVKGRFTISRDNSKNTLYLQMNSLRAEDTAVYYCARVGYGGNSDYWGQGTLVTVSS VL: DIQMTQSPSSVSASVGDRLTIICRASQDINRWLAWYQQTPGNAPKLLIHSWTSLQSGVPSRFSGSGSGTDFTLTINSLQPEDFATYYCQQADSFPLTFGGGTKVEIK	0.24 fold
C5A (XPA23) VH K31L (antibody, V domains shown) VH: EVQLLESGGGLVQPGGSLRLSCAASGFTFSLYFMFWVRQAPGKGLEWVSVISPSGGMTRYADSVKGRFTISRDNSKNTLYLQMNSLRAEDTAVYYCARVGYGGNSDYWGQGTLVTVSS VL: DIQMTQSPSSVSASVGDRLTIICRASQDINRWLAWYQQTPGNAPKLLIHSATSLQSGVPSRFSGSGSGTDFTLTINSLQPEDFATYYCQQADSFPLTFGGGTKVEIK	1.08 fold

Here's the next entry for you.
Enquiry: If you can, please state the reported fold difference in affinity vs original value of C5A (XPA23) VL S93R (antibody, V domains shown) VH: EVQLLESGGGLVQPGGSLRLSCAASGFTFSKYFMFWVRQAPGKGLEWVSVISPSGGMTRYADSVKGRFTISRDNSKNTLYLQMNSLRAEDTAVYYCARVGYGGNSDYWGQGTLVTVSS VL: DIQMTQSPSSVSASVGDRLTIICRASQDINRWLAWYQQTPGNAPKLLIHSATSLQSGVPSRFSGSGSGTDFTLTINSLQPEDFATYYCQQADRFPLTFGGGTKVEIK .
Return: 0.91 fold

Every entry's value here was drawn from patent US20110118447A1.
